Value source: PubChem BioAssay (Tox21)

Test: qHTS assay to identify small molecule agonists of the endoplasmic reticulum stress response signaling pathway - cell viability counter screen (AID 1159517);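 also: HeLa cells carrying an ER stress response element beta-lactamase reporter; % is scaled to controls: 0 for no effect and ±100 for the full control effect; nearly all actives have a fitted effect of over 50% in size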
Details: ESRE-bla HeLa viability, CellTiter-Glo luminescence, 5 h; series mostly up to 61 µM
Text: U.S. Tox21 Program National Center for Advancing Translational Sciences [NCATS] NIH Chemical Genomics Center [NCGC] U.S. Environmental Protection Agency [EPA] National Institutes of Environmental Health Sciences [NIEHS] National Toxicology Program [NTP] U.S. Food and Drug Administration [FDA] Tox21 Assay Overview: Endoplasmic Reticulum (ER) plays an important role in cellular signaling, protein folding/maturation, stress response, lipid biosynthesis, calcium storage and release etc. […]
Inconclusive results are not listed. Active and inactive are the calls of the source. Calls follow the shape of the full dose curve.
measurement.type: outcome

[
  {
    "compound": "O=C(O)c1ccc(OCCCOc2ccc(C(=O)O)cc2)cc1",
    "reported": "inactive"
  },
  {
    "compound": "C=C1C[C@@]23CC[C@H]4[C@@](C)(CCC[C@@]4(C)C(=O)O[C@@H]4O[C@H](CO)[C@@H](O)[C@H](O)[C@H]4O)[C@@H]2CC[C@]1(O[C@@H]1O[C@H](CO)[C@@H](O)[C@H](O[C@@H]2O[C@H](CO)[C@@H](O)[C@H](O)[C@H]2O)[C@H]1O[C@@H]1O[C@H](CO)[C@@H](O)[C@H](O)[C@H]1O)C3",
    "reported": "inactive"
  },
  {
    "compound": "CC(O)c1ccccc1 (configuration not stated)",
    "reported": "inactive"
  },
  {
    "compound": "CCN(CC)CCNC(=O)COc1ccc(OC)cc1",
    "reported": "inactive"
  },
  {
    "compound": "CCOC(=O)c1ccc(I)cc1",
    "reported": "inactive"
  },
  {
    "compound": "CC1(C)[C@@H](OC(=O)CCC(=O)O)CC[C@]2(C)[C@H]3C(=O)C=C4[C@@H]5C[C@@](C)(C(=O)O)CC[C@]5(C)CC[C@@]4(C)[C@]3(C)CC[C@@H]12",
    "reported": "inactive"
  },
  {
    "compound": "CC(C)=CCC/C(C)=C/CC/C(C)=C/C(=O)OCC(=O)[C@@]1(O)CC[C@H]2[C@@H]3CCC4=CC(=O)C=C[C@]4(C)[C@H]3[C@@H](O)C[C@@]21C",
    "reported": "inactive"
  }
]

----------
Assay: qHTS assay to identify small molecule antagonists of the retinoic acid receptor (RAR) signaling pathway (AID 1159552; also: nearly all actives have a fitted effect of over 50% in size)
Conditions: C3RL4 RARE luciferase reporter, retinol-stimulated, 6 h; series mostly up to 92.4 µM
Results filed as inconclusive are left out. Activity calls are given as the source filed them. Calls come from the whole dose curve; as a rule, active = well fitted inhibition curve with a large enough effect in the repeat runs; inconclusive = weak or mixed curves, or effect the other way; inactive = no such curve, though single readings can be large or run the other way.
Outcomes: active, inactive

[
  {
    "compound": "CC(=O)OCCN(CCOC(C)=O)c1ccc(N=Nc2ccc([N+](=O)[O-])cc2C#N)cc1",
    "category": "inactive"
  },
  {
    "compound": "O=C1Cc2ccccc2N1c1c(Cl)cccc1Cl",
    "category": "inactive"
  },
  {
    "compound": "CC(CN(C)C)C(C)(O)Cc1ccc(Cl)cc1 (stereo not drawn)",
    "category": "inactive"
  },
  {
    "compound": "Clc1ccc(Nc2nnc(Cc3ccncc3)c3ccccc23)cc1",
    "category": "inactive"
  },
  {
    "compound": "CCCCOc1ccc(OCCCN2CCOCC2)cc1",
    "category": "inactive"
  },
  {
    "compound": "O=C1NCCN1CCO",
    "category": "inactive"
  },
  {
    "compound": "CC(O)c1ccccc1 (stereo not drawn)",
    "category": "inactive"
  },
  {
    "compound": "Cc1ccccc1N=C(N)Nc1ccccc1C",
    "category": "inactive"
  },
  {
    "compound": "C[C@H]1C[C@H](O)c2ccsc2S1(=O)=O",
    "category": "inactive"
  },
  {
    "compound": "CC(C)=CCC/C(C)=C/CC/C(C)=C/CCC(=O)OC/C=C(\\C)CCC=C(C)C",
    "category": "inactive"
  },
  {
    "compound": "c1ccc2c(c1)CCc1ccccc1N2",
    "category": "inactive"
  },
  {
    "compound": "C[C@@]12CCC[C@H]1[C@@H]1CC[C@H]3C[C@@H](O)CC[C@]3(C)[C@H]1CC2",
    "category": "inactive"
  },
  {
    "compound": "OCCN1CCN(CCCN2c3ccccc3Sc3ccc(Cl)cc32)CC1",
    "category": "active"
  }
]

----------
Test: qHTS assay to test for compound auto fluorescence at 460 nm (blue) in HEK293 cell free culture (AID 720681); also: % is scaled to controls: 0 for no effect and ±100 for the full control effect
Settings: cell-free medium, autofluorescence 405/460 nm (blue); series mostly up to 91.3 µM
Calls of active or inactive are those of the source. The call rests on the fitted dose curve; in most records, active means well fitted curve in the direction sought with a large enough effect in the repeat runs; inconclusive means weak or mixed curves; inactive means flat fitted curve, though single readings scatter.

[
  {
    "input.smiles": "CC1=Nc2ccc3ccccc3c2C1(C)C",
    "fluorescence, % of fluorescent control": "inactive"
  },
  {
    "input.smiles": "Oc1c(I)cc(I)c2cccnc12",
    "fluorescence, % of fluorescent control": "inactive"
  },
  {
    "input.smiles": "CC(=O)OCC[N+](C)(C)C",
    "fluorescence, % of fluorescent control": "inactive"
  },
  {
    "input.smiles": "CC[N+](CC)(CCNC(=O)C(=O)NCC[N+](CC)(CC)Cc1ccccc1Cl)Cc1ccccc1Cl",
    "fluorescence, % of fluorescent control": "inactive"
  },
  {
    "input.smiles": "C=CC(=O)[O-].C=CC(=O)[O-].[Zn+2]",
    "fluorescence, % of fluorescent control": "inactive"
  },
  {
    "input.smiles": "CC1(C)O[C@@H]2C[C@H]3[C@@H]4C[C@H](F)C5=CC(=O)C=C[C@]5(C)[C@H]4[C@@H](O)C[C@]3(C)[C@]2(C(=O)CO)O1",
    "fluorescence, % of fluorescent control": "-0.131% [at 18.6 µM] (inactive)"
  }
]

----------
Experiment: qHTS assay to identify small molecule agonists of the estrogen receptor beta (ER-beta) signaling pathway - cell viability counter screen (AID 1259380); also: nearly all actives have a fitted effect of over 30% in size
Conditions: ER-beta-bla HEK293T viability, CellTiter-Glo luminescence, 16 h; series mostly up to 92.4 µM
Records with an inconclusive call do not appear. Active and inactive are the calls of the source. The call rests on the fitted dose curve; in most records, active means well fitted cell-killing curve with a large enough effect in the repeat runs; inconclusive means weak or mixed curves, or effect the other way; inactive means flat fitted curve, though single readings scatter.
Outcome codes: 1 (yes) for active, 0 (no) for inactive

[
  {
    "compound": "O[C@@H]1CO[C@H]2[C@@H]1OC[C@@H]2O",
    "category": "0 (no)"
  },
  {
    "compound": "C[C@@H](CN(C)C)CN1c2ccccc2Sc2ccccc21",
    "category": "1 (yes)"
  },
  {
    "compound": "COc1cc(C(=O)NCCCCCC(=O)O)cc(OC)c1OC",
    "category": "0 (no)"
  },
  {
    "compound": "O=C1c2ccccc2C(=O)C1c1ccc(Br)cc1",
    "category": "0 (no)"
  },
  {
    "compound": "O=C1Cc2cc(Cl)ccc2N1",
    "category": "0 (no)"
  },
  {
    "compound": "O=C=Nc1ccc(Cl)c(Cl)c1",
    "category": "1 (yes)"
  },
  {
    "compound": "CC(C)C(O)(c1ccc(OC(F)(F)F)cc1)c1cncnc1 (stereo unspecified)",
    "category": "0 (no)"
  },
  {
    "compound": "CCC(=O)C1CC(C(C)C)CC=C1C (stereo unspecified)",
    "category": "0 (no)"
  },
  {
    "compound": "COc1cc(Nc2c(C#N)cnc3cc(OCCCN4CCN(C)CC4)c(OC)cc23)c(Cl)cc1Cl",
    "category": "1 (yes)"
  },
  {
    "compound": "CC(CCC(=O)O)C(=O)O (stereo unspecified)",
    "category": "0 (no)"
  },
  {
    "compound": "CN(C(=O)CN(CCO)CC(=O)N(C)C(C)(C)Cc1ccccc1)C(C)(C)Cc1ccccc1",
    "category": "0 (no)"
  },
  {
    "compound": "C=C(C)C(=O)OCCCCCCCCCCCCC",
    "category": "0 (no)"
  },
  {
    "compound": "NC(=O)c1ccncc1",
    "category": "0 (no)"
  },
  {
    "compound": "Cc1ccc(C(C)(C)O)cc1",
    "category": "0 (no)"
  },
  {
    "compound": "C=C1CCC2CC1C2(C)C (stereo unspecified)",
    "category": "0 (no)"
  },
  {
    "compound": "O=C(O)c1ccc(OCCCOc2ccc(C(=O)O)cc2)cc1",
    "category": "0 (no)"
  },
  {
    "compound": "Nc1ncnc2c1ncn2[C@H]1CC[C@@H](CO)O1",
    "category": "0 (no)"
  },
  {
    "compound": "O=C(O)C[C@H](NC(=O)OCc1ccccc1)C(=O)O",
    "category": "0 (no)"
  },
  {
    "compound": "CCn1cc(C(=O)O)c(=O)c2cc(F)c(N3CCNCC3)cc21",
    "category": "0 (no)"
  },
  {
    "compound": "Cc1cscn1",
    "category": "0 (no)"
  },
  {
    "compound": "O=C(Cn1ccnc1[N+](=O)[O-])NCCO",
    "category": "0 (no)"
  },
  {
    "compound": "O=C1NC(=O)c2cc([N+](=O)[O-])ccc21",
    "category": "0 (no)"
  },
  {
    "compound": "CC(C)C[C@H](NC(=O)[C@H](CCc1ccccc1)NC(=O)CN1CCOCC1)C(=O)N[C@@H](Cc1ccccc1)C(=O)N[C@@H](CC(C)C)C(=O)[C@@]1(C)CO1",
    "category": "1 (yes)"
  },
  {
    "compound": "C[C@@H]1CC(=O)NN=C1c1ccc(NN=C(C#N)C#N)cc1",
    "category": "0 (no)"
  },
  {
    "compound": "CCCCCCCCCI",
    "category": "0 (no)"
  },
  {
    "compound": "C=Cc1ccc(S(=O)(=O)O)cc1",
    "category": "0 (no)"
  }
]
